- Tested on: P. falciparum NF54 asexual blood-stage parasites
- MEASUREMENT PROTOCOL: 72-h asexual blood-stage replication assay (SYBR Green)
- Type: cell-based, Plasmodium falciparum
- REPORTED CONDITIONS: per replicate experiment; read-out: IC50, asexual blood stages
ASSAY READOUT: IC50 (nM)
Give bare numbers, in nM.

Return reported IC50. Input compound: C[C@@H](CNC(=O)[C@H](O)C(C)(C)CO)NC(=O)c1cc(C#N)ccc1F
6.21

====

- MEASUREMENT PROTOCOL: Human hepatocyte clearance (relay assay)
- REPORTED CONDITIONS: human, % Remaining, 10 µM, hepatocyte donor HC1010, 6 h, single replicates
ASSAY READOUT: remaining at 6 h, 10 µM (%)
Numbers only, in %.

Return reported remaining at 6 h, 10 µM. Input molecule: CCOc1ccc2ccc(=O)oc2c1
29.5
